# Recorded Conditions: human gut metagenome, 24 h, 2 µM; also: call rule not given here
Reported Endpoint: Bacterial Biotransformation

>>> experimental_value("Cc1ccc(/C(=C\\CN2CCCC2)c2ccccn2)cc1 [TRIPROLIDINE]")
"Compound metabolized"
>>> experimental_value("c1ccc([C@H]2CN3CCSC3=N2)cc1 [LEVAMISOLE]")
"Compound metabolized"
>>> experimental_value("C=CCc1ccccc1OCC(O)CNC(C)C (centres undefined) [ALPRENOLOL]")
"Compound metabolized"
>>> experimental_value("NC(CO)(CO)CO.O=C(c1ccccc1)c1ccc2n1CCC2C(=O)O (centres undefined) [KETOROLAC TROMETHAMINE]")
"Compound metabolized"

----------
# Recorded Conditions: human gut metagenome, 24 h, 2 µM
Reported Endpoint: Bacterial Biotransformation

>>> experimental_value("CO[C@]12C[C@@H](COC(=O)c3cncc(Br)c3)CN(C)[C@@H]1Cc1cn(C)c3cccc2c13")
"Compound NOT metabolized"
>>> experimental_value("O=C(Nc1ccccc1)OCC(CN1CCCCC1)OC(=O)Nc1ccccc1 (stereo not drawn)")
"Compound NOT metabolized"
>>> experimental_value("CN1CCN(CC/C=C2/c3ccccc3Sc3ccc(S(=O)(=O)N(C)C)cc32)CC1")
"Compound NOT metabolized"

----------
# Experiment Description: The drug is tested on Z-027 corresponding to metagenome with ENA study accession number: PRJEB37062 and ENA sample accession number: ERS12561826 for biotransformation under anaerobic condition. The drug concentrations were measured over 9 timepoints collected between 0 and 24 hours of incubation by liquid-chromatography-coupled mass spectrometry (LC–MS)
# Recorded Conditions: 2 µM
Reported Endpoint: Bacterial Biotransformation

>>> experimental_value("CCCCc1nc(Cl)c(CO)n1Cc1ccc(-c2ccccc2-c2nn[nH]n2)cc1")
"Compound NOT metabolized"
>>> experimental_value("CCN(CC)C(=O)/C(C#N)=C/c1cc(O)c(O)c([N+](=O)[O-])c1")
"Compound metabolized"
>>> experimental_value("CCCCC(=O)N(Cc1ccc(-c2ccccc2-c2nnn[nH]2)cc1)[C@H](C(=O)O)C(C)C")
"Compound NOT metabolized"
>>> experimental_value("CCC(COC(=O)c1cc(OC)c(OC)c(OC)c1)(c1ccccc1)N(C)C.O=C(O)/C=C\\C(=O)O (stereo not drawn)")
"Compound NOT metabolized"

Please indicate Bacterial Biotransformation recorded for CN(C)C(=O)C(CCN1CCC(O)(c2ccc(Cl)cc2)CC1)(c1ccccc1)c1ccccc1 [LOPERAMIDE]
Compound metabolized

Answer with the recorded Bacterial Biotransformation of Cc1nc2n(c(=O)c1CCN1CCC(c3noc4cc(F)ccc34)CC1)CCCC2 only.
Compound metabolized

Provide measured Bacterial Biotransformation value, entry: CNS(=O)(=O)Cc1ccc2[nH]cc(CCN(C)C)c2c1.O=C(O)CCC(=O)O [SUMATRIPTAN SUCCINATE]
Compound NOT metabolized

// fetch Bacterial Biotransformation given entry CNC(=C[N+](=O)[O-])NCCSCc1ccc(CN(C)C)o1
Compound NOT metabolized

----------
# Experiment Description: The drug is tested on WLS-069 corresponding to human gut metagenome with ENA study accession number: PRJEB37062 and ENA sample accession number: ERS12561748 for biotransformation under anaerobic condition. The drug concentrations were measured over 9 timepoints collected between 0 and 24 hours of incubation by liquid-chromatography-coupled mass spectrometry (LC–MS)
# Recorded Conditions: 2 µM
Reported Endpoint: Bacterial Biotransformation

>>> experimental_value("CC(=O)OCC(=O)[C@@]1(O)[C@@H](C)C[C@H]2[C@@H]3CCC4=CC(=O)C=C[C@]4(C)[C@@]3(F)[C@@H](O)C[C@@]21C [BETAMETHASONE ACETATE]")
"Compound metabolized"
>>> experimental_value("Nc1c2c(nc3ccccc13)CCCC2 [TACRINE]")
"Compound metabolized"
